- System: HEK293T
- experiment description: qHTS assay to identify novel small-molecules to repurpose for Merkel cell carcinoma treatment (AID 1296009); also: nearly all actives have a fitted effect of over 60% in size
- protocol conditions: MCC and control cell lines, CellTiter-Glo viability, 72 h; at 44.8 µM (top of the series)
Inconclusive results are not listed. Active and inactive are the calls of the source. Calls follow the shape of the dose curve; as a rule, active = well fitted inhibition curve with a large enough effect; inconclusive = small, poorly fitted or top-dose-only effect; inactive = flat fitted curve, though single readings scatter.
test readout: outcome

For O=C(O)C(O)Cc1ccc(O)c(O)c1 (stereo not given) , what is its reported outcome?
inactive

For NC1CCC(Nc2nc(Nc3ccc(C(=O)N4CCCCC4)cc3)c3ncn(-c4cccc(F)c4)c3n2)CC1 (stereo not given) , what is its reported outcome?
inactive

For COc1ccccc1N1CCN(CCCNc2cc(=O)n(C)c(=O)n2C)CC1 , what is its reported outcome?
inactive

For CS(=O)c1ccc(-c2nc(-c3ccc(F)cc3)c(-c3ccncc3)[nH]2)cc1 (stereo not given) , what is its reported outcome?
inactive

Continuing:
For CC1(C)Cc2c(sc(NC(=S)NC(=O)c3ccccc3)c2C(=O)O)CO1 , what is its reported outcome?
inactive

----------
- experiment description: qHTS of pediatric cancer cell lines to identify multiple opportunities for drug repurposing: Primary screen for LAN-5 cells (AID 1347100); also: potency is read from the fitted curve at half-maximal effect
- protocol conditions: LAN-5 neuroblastoma viability, CellTiter-Glo luminescence, 48 h; series mostly up to 46 µM
Records with an inconclusive call do not appear. Active and inactive are the calls of the source. The call rests on the fitted dose curve; in most records, active means well fitted cell-killing curve with a large enough effect; inconclusive means small, poorly fitted or top-dose-only effect; inactive means no such curve, though single readings can be large or run the other way.
test readout: Potency

Worked examples follow.
For Cc1[nH]c(C=C2C(=O)Nc3ccc(S(=O)(=O)Cc4c(Cl)cccc4Cl)cc32)c(C)c1C(=O)N1CCC[C@H]1CN1CCCC1 , what is its reported Potency?
14.8 µM (active)

For C=C1C(=O)OC(CCCCCCCC)C1C(=O)O (stereo not given) , what is its reported Potency?
inactive

For O=C1C(Cl)=C(NCCN2CCOCC2)C(=O)c2ncccc21 , what is its reported Potency?
8.33 µM (active)

For NC(=O)[C@@H](CCC(F)(F)F)N(Cc1ccc(-c2ncon2)cc1F)S(=O)(=O)c1ccc(Cl)cc1 , what is its reported Potency?
inactive

For COCCOC(=O)C1=C(C)NC2=C(C(=O)CC(c3ccccc3OC)C2)C1c1cccc(O)c1 (stereo not given) , what is its reported Potency?
13.2 µM (active)

For O=c1[nH]cnc2c1ncn2[C@H]1CC[C@@H](CO)O1 , what is its reported Potency?
inactive

For CC(C)NCC(O)COc1cccc2[nH]ccc12 (stereo not given) , what is its reported Potency?
inactive

For Clc1ccc(C(c2ccc(Cl)cc2)n2cc[n+](CC(OCc3ccc(Cl)cc3Cl)c3ccc(Cl)cc3Cl)c2)cc1 (stereo not given) , what is its reported Potency?
18.7 µM (active)

Continuing:
For Clc1ccc(Cn2c(CN3CCCC3)nc3ccccc32)cc1 , what is its reported Potency?
inactive

For NC(CO)(CO)CCc1ccc(Sc2cccc(OCc3ccccc3)c2)cc1Cl , what is its reported Potency?
4.18 µM (active)

For CC(C)(C)OC(=O)N[C@H]1CCCCCC=C[C@@H]2C[C@@]2(C(=O)NS(=O)(=O)C2CC2)NC(=O)[C@@H]2C[C@@H](OC(=O)N3Cc4cccc(F)c4C3)CN2C1=O , what is its reported Potency?
inactive

For O=C(NC1CCOCC1)c1ccc(-c2cc(-c3cn[nH]c3-c3ccccn3)ccn2)cc1 , what is its reported Potency?
inactive

For Cc1ccc(Nc2cc(-c3cccc(N4C(=O)c5ccccc5C4=O)c3)ncn2)cc1NS(C)(=O)=O , what is its reported Potency?
23.5 µM (active)

For C[N+](C)(C)CC(=O)O , what is its reported Potency?
inactive

For CN(C)C1CCN(C(=O)c2ccc(NC(=O)Nc3nc(N4CCOCC4)nc(N4CCOCC4)n3)cc2)CC1 , what is its reported Potency?
0.187 µM (active)

For O=C(Nc1cc(Cl)cc2c1[nH]c1cnccc12)c1cccnc1 , what is its reported Potency?
inactive

For Cc1ccccc1C(C(=O)NC1CCCCC1)N(C(=O)Cn1ccnc1C)c1cccc(F)c1 (stereo not given) , what is its reported Potency?
inactive

For Cc1ccc(C(=O)Nc2cccc(C(F)(F)F)c2)cc1Nc1nc(-c2cccnc2)nc2c1cnn2C , what is its reported Potency?
13.2 µM (active)

For O=C(OCC#CCSc1nnc(-c2cccc3ccccc23)o1)c1cc2ccccc2s1 , what is its reported Potency?
inactive

For CCN(CC)C(=O)c1ccc(O)c(OC)c1 , what is its reported Potency?
inactive

----------
- experiment description: Quantitative High-Throughput drug screen in 47 multiple myeloma cell lines against the NCATS MIPE library collection: Karpas620_DSMZ cell viability assay (AID 1918959); also: nearly all actives have a fitted effect of over 30% in size
- protocol conditions: Karpas620 myeloma viability, CellTiter-Glo ATP luminescence, 48 h; series mostly up to 45.8 µM
Results filed as inconclusive are left out. Calls of active or inactive are those of the source. Calls come from the whole dose curve; as a rule, active = well fitted cell-killing curve with a large enough effect; inconclusive = small, poorly fitted or top-dose-only effect, or effect the other way; inactive = no such curve, though single readings can be large or run the other way.
Write down the outcome that applies. Available outcomes: active, inactive

Answered examples (5):
Status in this test for Cc1c[nH]c(C=C2C(=O)Nc3ccccc32)c1CCC(=O)O ?
inactive

Status in this test for Oc1ccc(C2CCN(c3ccnc4ccccc34)CC2)cc1O ?
active

Status in this test for COc1ccc(C2Sc3ccccc3N(CCN(C)C)C(=O)C2OC(C)=O)cc1 (centres undefined) ?
inactive

Status in this test for CCc1ccc(OCc2ccccc2C(=O)Nc2ccc3nc(C)cc(N)c3c2)cc1 ?
active

Status in this test for COc1cc(O)c2c(c1)C(=O)c1cc(C)cc(O)c1C2=O ?
inactive

Continuing:
Status in this test for C=C1C(=O)[C@@]23C(CC[C@@H]1[C@H]2O)[C@@]12CO[C@]3(O)[C@@H](O)[C@@H]1C(C)(C)CC[C@@H]2O (some centres undefined) ?
active

Status in this test for CS(=O)(=O)N(Cc1ccco1)CC(O)Cn1c2ccccc2c2ccccc21 (centres undefined) ?
inactive

Status in this test for CN1[C@@H]2CCC[C@@H]1CC(NC(=O)c1nn(C)c3ccccc13)C2 (some centres undefined) ?
inactive

Status in this test for O=c1cc(N2CCOCC2)oc2c(-c3cccc4c3sc3ccccc34)cccc12 ?
active

Status in this test for COc1ccc(-c2oc3c(CC=C(C)C)c(OC4O[C@H](CO)[C@@H](O)[C@H](O)[C@@H]4O)cc(O)c3c(=O)c2OC2O[C@@H](C)[C@H](O)[C@@H](O)[C@@H]2O)cc1 (some centres undefined) ?
active

Status in this test for O=C1NC(=O)C(=Cc2ccc3nccnc3c2)S1 ?
active

----------
- experiment description: qHTS profiling of the MIPE4 collection as inhibitors of Plasmodium falciparum (3D7) proliferation (AID 743344)
- protocol conditions: P. falciparum 3D7 in erythrocytes, SYBR Green DNA fluorescence, 72 h; at 28.5 µM (top of the series) unless noted
Would you mind sorting the entries by parasite growth, % of DMSO control according to these classes? band A (below 10%), band B (10% to below 60%), band C (60% or more)

Each compound maps to one class by parasite growth, % of DMSO control. Which class for CCOC(CN1C(=O)[C@](CC(=O)Nc2ccc(C)cc2)(NC(=O)Nc2ccc(C)cc2)c2ccccc21)OCC ?
band B

Each compound maps to one class by parasite growth, % of DMSO control. Which class for CN(C)Cc1ccc(-c2nc3cccc4c3n2CCNC4=O)cc1 ?
band C

Each compound maps to one class by parasite growth, % of DMSO control. Which class for CNC(=O)c1ccc2cc(C3(O)CCn4cncc43)ccc2c1 (stereo not given) ?
band C

Each compound maps to one class by parasite growth, % of DMSO control. Which class for COc1cc2nc(-c3ccc(N4CCN(C)CC4)cc3)nc(NCCN3CCOCC3)c2cc1OC ?
band A

Each compound maps to one class by parasite growth, % of DMSO control. Which class for CC(C)(C)C(=O)Oc1ccc2c(c1)nc(NC(=O)c1cccc([N+](=O)[O-])c1)n2CCCO ?
band B

Each compound maps to one class by parasite growth, % of DMSO control. Which class for CCOC(=O)C1=C(N)Oc2ccc(Br)cc2C1C(C#N)C(=O)OCC (stereo not given) ?
band C

Each compound maps to one class by parasite growth, % of DMSO control. Which class for CCC(=O)O[C@]1(C(=O)CO)CC[C@H]2[C@@H]3CCC4=CC(=O)CC[C@]4(C)[C@@H]3CC[C@@]21C ?
band B

Each compound maps to one class by parasite growth, % of DMSO control. Which class for C[C@H](NC(=O)c1sccc1OCc1ccc(Cl)cc1)c1ccccc1 ?
band B

Continuing:
Each compound maps to one class by parasite growth, % of DMSO control. Which class for CC(C)(C)Cn1c(N)nc2ccc(-c3[nH]c(C(C)(C)C)nc3-c3ccc(F)cc3)nc21 ?
band B

----------
- experiment description: Quantitative High-Throughput drug screen in 47 multiple myeloma cell lines against the NCATS MIPE library collection: VP6_DJ cell viability assay (AID 1919867); also: potency is read from the fitted curve at half-maximal effect; nearly all actives have a fitted effect of over 40% in size
- protocol conditions: ATP luminescence, 48 h; series mostly up to 45.8 µM
Records with an inconclusive call do not appear. The source made the active and inactive calls. Calls follow the shape of the dose curve; as a rule, active = well fitted cell-killing curve with a large enough effect; inconclusive = small, poorly fitted or top-dose-only effect, or effect the other way; inactive = no such curve, though single readings can be large or run the other way.
This section presents molecules with their documented Potency values.

Worked examples follow.
For O=C1NC(=O)C(=Cc2ccc3c(c2)OC(F)(F)O3)S1 , what is its reported Potency?
14.8 µM (active)

For CC(C)[C@H](CO)Nc1nc(Nc2ccc(C(=O)O)c(Cl)c2)c2ncn(C(C)C)c2n1 , what is its reported Potency?
23.5 µM (active)

For CC(=O)Oc1cc2c(s1)CCN(C(C(=O)C1CC1)c1ccccc1F)C2 (stereo not given) , what is its reported Potency?
1.32 µM (active)

Continuing:
For C=C1C(=O)OC2C=C(C)CCC=C(C)CCC12 (stereo not given) , what is its reported Potency?
8.33 µM (active)

For COCCOC(=O)C1=C(C)NC2=C(C(=O)CC(c3ccccc3OC)C2)C1c1cccc(O)c1 (stereo not given) , what is its reported Potency?
2.96 µM (active)
